Target: T1, soluble human FcRn (human, UniProt P55899 24-297; P61769 21-119, biotinylated (Sulfo-NHS-LC-Biotin) in the ELISA; amine-coupled to CM5 chip in SPR)
T1 construct: also called shFcRn; biotinylated shFcRn
T1 sequence (P55899 24-297 limits assumed, chain 1 of 2): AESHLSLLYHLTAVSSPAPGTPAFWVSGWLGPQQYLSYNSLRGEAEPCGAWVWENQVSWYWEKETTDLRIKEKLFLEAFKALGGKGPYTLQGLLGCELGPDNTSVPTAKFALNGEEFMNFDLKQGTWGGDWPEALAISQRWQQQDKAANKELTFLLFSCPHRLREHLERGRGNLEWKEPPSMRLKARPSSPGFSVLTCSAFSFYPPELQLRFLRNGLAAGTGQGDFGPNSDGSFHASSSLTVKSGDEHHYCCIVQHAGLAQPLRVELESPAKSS
T1 sequence (P61769 21-119 limits assumed, chain 2 of 2): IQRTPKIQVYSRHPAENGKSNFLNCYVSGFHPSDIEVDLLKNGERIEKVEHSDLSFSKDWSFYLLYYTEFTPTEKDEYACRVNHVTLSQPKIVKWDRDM
Experiment: ELISA, competitor human IgG
Bridge positions count the residues as written; N and C are the ends. Square brackets hold non-standard residues; d marks the D form. Ends that are not written are not given here.
pIC50 values for the binders below.
In plain terms, pIC50 is the concentration in mol/L turned into minus its base-10 logarithm.

| BINDER | pIC50 |
| --- | --- |
| QRFCTGHF[dA][dA]LYPCNGP-NH2 (disulfide 4-14 (inferred)) [Peptide No. 24] | 4.16 |

Shifting focus to the binder that follows.
Can you look up the measured pIC50 of QRFCTGHFG[dA]LYPCNGP-NH2 (disulfide 4-14 (inferred)) [Peptide No. 23] for me? 4.24
